// provenance: patent EP4477673A1

Assayed target: human PD-1 (human, UniProt Q15116 25-288)
Sequence (Q15116 25-288 limits assumed): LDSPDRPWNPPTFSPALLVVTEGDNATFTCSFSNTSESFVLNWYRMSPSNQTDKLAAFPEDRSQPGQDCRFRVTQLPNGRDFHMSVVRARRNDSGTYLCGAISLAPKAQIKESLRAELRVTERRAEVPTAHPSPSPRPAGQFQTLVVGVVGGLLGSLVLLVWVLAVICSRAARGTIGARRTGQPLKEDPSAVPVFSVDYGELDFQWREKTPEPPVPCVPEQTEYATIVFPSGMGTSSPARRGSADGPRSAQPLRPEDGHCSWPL
Protocol details: cell-based or functional assay
Can you tell me M07e-hPD-1 cell proliferation ratio (%) at 0.001 nM for the items I'm about to list?
Just the number in %, nothing appended.

Recorded M07e-hPD-1 cell proliferation ratio (%) at 0.001 nM (binder A-N88D-M08 (Fc fusion, also called A-N88D-M8; not shown: IgG1 hinge (C220S) + Fc Knob chain as in A-N88D; IgG1 hinge (C220S) + Fc Hole chain as in A-N88D) chain (part 1 of 2): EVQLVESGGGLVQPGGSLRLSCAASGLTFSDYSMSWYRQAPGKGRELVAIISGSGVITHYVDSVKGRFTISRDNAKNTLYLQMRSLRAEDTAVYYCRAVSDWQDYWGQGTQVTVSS chain (part 2 of 2): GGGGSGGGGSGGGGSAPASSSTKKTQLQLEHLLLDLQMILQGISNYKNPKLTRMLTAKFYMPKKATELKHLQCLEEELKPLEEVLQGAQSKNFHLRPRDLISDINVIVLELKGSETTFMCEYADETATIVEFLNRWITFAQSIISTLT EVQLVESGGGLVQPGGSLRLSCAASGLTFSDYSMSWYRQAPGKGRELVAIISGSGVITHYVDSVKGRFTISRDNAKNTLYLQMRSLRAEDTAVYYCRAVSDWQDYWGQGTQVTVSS ): 4.5

M07e-hPD-1 cell proliferation ratio (%) at 0.001 nM for A-N88D (Fc fusion, also called PD-1-IL-2v (N88D); not shown: IgG1 hinge (C220S) + Fc Knob chain (L234A, L235A, S354C, T366W, EU); D356/L358 or E356/M358 ver; IgG1 hinge (C220S) + Fc Hole chain (L234A, L235A, Y349C, T366S, L368A, Y407V; may have H435R, Y436F; EU)) chain (part 1 of 2): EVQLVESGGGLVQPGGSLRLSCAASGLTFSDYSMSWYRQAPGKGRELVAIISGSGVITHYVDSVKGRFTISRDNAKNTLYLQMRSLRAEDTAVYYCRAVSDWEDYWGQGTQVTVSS chain (part 2 of 2): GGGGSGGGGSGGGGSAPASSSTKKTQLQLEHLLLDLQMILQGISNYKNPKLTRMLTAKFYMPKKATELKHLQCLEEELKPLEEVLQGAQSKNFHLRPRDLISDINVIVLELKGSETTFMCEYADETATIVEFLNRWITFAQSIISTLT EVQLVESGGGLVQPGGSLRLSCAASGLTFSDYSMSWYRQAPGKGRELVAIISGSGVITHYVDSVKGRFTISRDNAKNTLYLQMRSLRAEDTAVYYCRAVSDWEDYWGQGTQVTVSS is 4.4

For A-N88D-M27 (Fc fusion, not shown: IgG1 hinge (C220S) + Fc Knob chain as in A-N88D; IgG1 hinge (C220S) + Fc Hole chain as in A-N88D) chain (part 1 of 2): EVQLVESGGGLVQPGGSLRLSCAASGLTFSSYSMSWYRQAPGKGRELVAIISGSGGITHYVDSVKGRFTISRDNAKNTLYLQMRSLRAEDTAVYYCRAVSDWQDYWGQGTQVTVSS chain (part 2 of 2): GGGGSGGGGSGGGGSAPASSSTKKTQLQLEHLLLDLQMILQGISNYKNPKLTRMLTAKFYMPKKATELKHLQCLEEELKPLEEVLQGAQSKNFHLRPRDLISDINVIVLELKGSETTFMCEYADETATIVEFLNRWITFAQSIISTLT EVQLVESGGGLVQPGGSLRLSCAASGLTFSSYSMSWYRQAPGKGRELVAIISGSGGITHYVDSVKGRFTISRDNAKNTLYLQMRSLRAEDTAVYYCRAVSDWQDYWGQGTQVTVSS the binder record lists M07e-hPD-1 cell proliferation ratio (%) at 0.001 nM as 4.9
